Values compiled from patent US8871753B2.

- assayed system: human JAK1 (a.a. 837-1142) (Homo sapiens)
- Construct: human JAK1 (a.a. 837-1142); His tag (N); made in house; host or cells: insect cells (baculovirus)
- Sequence (P23458 849-1154): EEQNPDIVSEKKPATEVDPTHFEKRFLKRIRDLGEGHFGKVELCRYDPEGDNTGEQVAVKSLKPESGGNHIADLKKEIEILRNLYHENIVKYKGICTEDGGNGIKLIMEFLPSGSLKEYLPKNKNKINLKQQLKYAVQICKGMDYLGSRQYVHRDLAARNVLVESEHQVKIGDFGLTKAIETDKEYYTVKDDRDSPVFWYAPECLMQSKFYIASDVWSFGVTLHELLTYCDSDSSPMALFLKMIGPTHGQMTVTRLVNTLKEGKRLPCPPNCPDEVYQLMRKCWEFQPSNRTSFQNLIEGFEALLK
- procedure summary: In vitro JAK kinase assay (HTRF, phosphorylation of a biotinylated peptide), JAK1
- Assay type: biochemical
- assay context: Table D1; read-out: JAK1 IC50
Counter-ions that a name gives are not always drawn.
For each entry below, report its pIC50 value.
Conceptually, pIC50 converts a concentration in mol/L into minus its log10.

Q) Item O=C(Nc1cccnc1)N1CCC(CCOc2ccc3cc2CCc2cncc(c2)Nc2ncc(Cl)c(n2)N3)CC1 [Example D182, tris(trifluoroacetate)] has what recorded pIC50?
A) 7.17

Q) Item O=C(NCc1ccccc1)N1CCN(c2cc(-c3cc4cc(c3)Nc3ncc(Cl)c(n3)Nc3cccc(c3)OCC4)ccn2)CC1 [Example D45, bis(trifluoroacetate)] has what recorded pIC50?
A) 8.09

Q) Item COC(=O)Cn1c(=O)oc2c3cc(cc21)Nc1nc(ncc1Cl)Nc1cccc(c1)CC3 [Example D183, trifluoroacetate] has what recorded pIC50?
A) 7.92

Q) Item O=S1(=O)CCOc2cccc(c2)Nc2ncc(Cl)c(n2)Nc2cccc1c2 [Example D14, trifluoroacetate] has what recorded pIC50?
A) 8.66

Q) Item O=C(C[C@H]1CCN(C(=O)Nc2ccccc2F)C1)Nc1ccc2cc1CCc1cncc(c1)Nc1ncc(Cl)c(n1)N2 [Example D104, bis(trifluoroacetate)] has what recorded pIC50?
A) 8.07

Q) Item O=C(Nc1ccsc1)N1CCC(CCOc2ccc3cc2CCc2cncc(c2)Nc2ncc(Cl)c(n2)N3)CC1 [Example D166, bis(trifluoroacetate)] has what recorded pIC50?
A) 7.85

Q) Item Clc1cnc2nc1Nc1ccc(OCC3CCNCC3)c(c1)CCc1cncc(c1)N2 [Example D225, tris(trifluoroacetate)] has what recorded pIC50?
A) 6.74

Q) Item Clc1cnc2nc1Nc1cccc(c1)OCc1cccc(c1)N2 [Example D7, trifluoroacetate] has what recorded pIC50?
A) 7.00

Q) Item N#Cc1cccnc1N1CCN(C(=O)COc2ccc3cc2CCc2cncc(c2)Nc2ncc(Cl)c(n2)N3)CC1 [Example D238, tris(trifluoroacetate)] has what recorded pIC50?
A) 7.39

Q) Item O=C(COc1ccc2cc1CCc1cncc(c1)Nc1ncc(Cl)c(n1)N2)N1CCN(c2cccc(C(F)(F)F)n2)CC1 [Example D248, tris(trifluoroacetate)] has what recorded pIC50?
A) 7.23

Q) Item CC(=O)N1Cc2cccc(c2)Nc2ncc(Cl)c(n2)Nc2cccc(c2)C1 [Example D74, trifluoroacetate] has what recorded pIC50?
A) 6.80

Q) Item O=C(COc1ccc2cc1CCc1cncc(c1)Nc1ncc(Cl)c(n1)N2)N1CCN(c2cc(Cl)cc(Cl)n2)CC1 [Example D247, tris(trifluoroacetate)] has what recorded pIC50?
A) 7.09

Q) Item N#Cc1ccc(N2CCN(C(=O)COc3ccc4cc3CCc3cncc(c3)Nc3ncc(Cl)c(n3)N4)CC2)nc1 [Example D239, tris(trifluoroacetate)] has what recorded pIC50?
A) 7.00

----------
For each entry below, report its pIC50 value.
- assayed system: human JAK3 (a.a. 781-1124) (Homo sapiens, UniProt P52333)
- Construct: JAK3 (a.a. 781-1124); His tag (N); made in house; host or cells: insect cells (baculovirus)
- Sequence (P52333 781-1124): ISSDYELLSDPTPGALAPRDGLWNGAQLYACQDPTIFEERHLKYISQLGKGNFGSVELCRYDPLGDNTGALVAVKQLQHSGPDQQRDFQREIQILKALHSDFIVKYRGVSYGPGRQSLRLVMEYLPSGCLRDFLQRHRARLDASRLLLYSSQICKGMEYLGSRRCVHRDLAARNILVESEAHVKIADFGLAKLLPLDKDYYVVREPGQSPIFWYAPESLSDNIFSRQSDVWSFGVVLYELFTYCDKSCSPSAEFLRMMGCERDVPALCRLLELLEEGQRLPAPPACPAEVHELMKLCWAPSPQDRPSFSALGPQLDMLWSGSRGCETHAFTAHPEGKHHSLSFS
- procedure summary: In vitro JAK kinase assay (HTRF, phosphorylation of a biotinylated peptide), JAK3
- Format: biochemical
- assay context: method AA1 (3 μM ATP) or AA2 (1000 μM ATP), not stated per value
Where a name gives a salt, the structure may show the parent alone.
Conceptually, pIC50 converts a concentration in mol/L into minus its log10.

Q) Reported pIC50 for human JAK3 (a.a. 781-1124) (Homo sapiens, UniProt P52333), given Cn1ccc2c(NC(=O)N3CCN(C(=O)COc4ccc5cc4CCc4cccc(c4)Nc4ncc(Cl)c(n4)N5)CC3)cccc21 [Example A11, trifluoroacetate] ?
A) 7.80

Q) Reported pIC50 for human JAK3 (a.a. 781-1124) (Homo sapiens, UniProt P52333), given O=C(COc1ccc2cc1CCc1cccc(c1)Nc1ncc(Cl)c(n1)N2)N1CCN(C(=O)Nc2ccc(Cl)nc2)CC1 [Example A10] ?
A) 6.98

Q) Reported pIC50 for human JAK3 (a.a. 781-1124) (Homo sapiens, UniProt P52333), given CCNC(=O)N1CC[C@@H](C(=O)Nc2ccc3cc2CCc2cccc(c2)Nc2ncc(Cl)c(n2)N3)C1 [Example A53, trifluoroacetate] ?
A) 8.49
